EXPERIMENTAL SYSTEM: Neu5Ac(a2-6)GlcNAc(b1-4)GlcNAc(b1-4)GlcNAc
METHOD NOTES: glycan array binding signal (z-score within array); higher = stronger binding
STATED CONDITIONS: glycan notation: IUPAC condensed, linker removed
The sample as a whole holds a higher share of the strongest signals than the screen did.
MEASURED PROPERTY: glycan array binding signal (z-score)
Answer as a number with no unit attached.

Value of measured glycan array binding signal (z-score) for the entry Gal 9 (Homo sapiens), O00182 (protein) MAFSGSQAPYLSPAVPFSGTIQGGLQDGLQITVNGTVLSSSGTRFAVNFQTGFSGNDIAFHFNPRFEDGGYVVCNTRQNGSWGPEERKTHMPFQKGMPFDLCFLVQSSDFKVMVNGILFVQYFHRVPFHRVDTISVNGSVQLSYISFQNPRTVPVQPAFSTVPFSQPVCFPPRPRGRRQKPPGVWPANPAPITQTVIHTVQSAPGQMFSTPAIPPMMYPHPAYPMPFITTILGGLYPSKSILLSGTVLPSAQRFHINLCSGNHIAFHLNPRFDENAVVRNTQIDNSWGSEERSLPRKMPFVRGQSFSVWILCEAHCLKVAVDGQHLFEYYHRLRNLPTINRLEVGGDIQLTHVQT : -0.318
